# study_system: PDE4B2 (Homo sapiens, UniProt Q07343)
# Construct: expressed in transfected cells; host or cells: Flp-In-293 (Flpin-293-PDE4B2 [sic])
# Sequence (Q07343 1-564 isoform Q07343-2): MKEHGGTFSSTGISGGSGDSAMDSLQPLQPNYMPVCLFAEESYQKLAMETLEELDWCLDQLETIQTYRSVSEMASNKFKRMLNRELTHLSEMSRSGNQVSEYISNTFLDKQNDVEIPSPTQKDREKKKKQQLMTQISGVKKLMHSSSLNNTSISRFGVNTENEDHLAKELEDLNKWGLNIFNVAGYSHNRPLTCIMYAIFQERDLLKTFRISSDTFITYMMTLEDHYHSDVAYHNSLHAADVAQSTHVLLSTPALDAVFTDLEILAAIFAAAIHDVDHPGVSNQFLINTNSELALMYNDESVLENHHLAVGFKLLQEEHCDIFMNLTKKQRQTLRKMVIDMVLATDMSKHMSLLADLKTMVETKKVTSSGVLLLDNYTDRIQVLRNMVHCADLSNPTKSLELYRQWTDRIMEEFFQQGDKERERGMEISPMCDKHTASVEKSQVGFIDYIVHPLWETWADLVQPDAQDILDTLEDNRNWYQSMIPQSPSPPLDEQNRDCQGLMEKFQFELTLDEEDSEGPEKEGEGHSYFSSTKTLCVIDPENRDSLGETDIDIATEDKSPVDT
# assay_comment: PDE4B2 cell experiment (cAMP, Eu-cAMP tracer / Ulight-anti-cAMP)
# Format: cell-based
# condition_parameters: Flpin-293-PDE4B2 cells, 100 nM
measurement_kind: inhibition at 0.1 µM (%)

inhibition at 0.1 µM reading for Cn1c(=O)oc2cc3c(cc21)CCN(c1nc2c(c(NC4(CO)CCC4)n1)[S@+]([O-])CC2)C3 [Compound 68] : 96.1

inhibition at 0.1 µM reading for CN1CC=C(c2ccc3c(c2)CCN(c2nc4c(c(NC5(CO)CCC5)n2)[S@+]([O-])CC4)C3)C1 [Compound 169] : 96.7

inhibition at 0.1 µM reading for [O-][S@+]1CCc2nc(N3CC[C@@H]4c5ccc(Cl)cc5CC[C@@H]4C3)nc(NC3(CO)CCC3)c21 [Compound 12] : 7.46

inhibition at 0.1 µM reading for [O-][S@+]1CCc2nc(N3CCc4c(ccc5[nH]ncc45)C3)nc(NC3(CO)CCC3)c21 [Compound 118] : 89

inhibition at 0.1 µM reading for O=c1[nH]c2cc3c(cc2o1)CN(c1nc2c(c(NC4(CO)CCC4)n1)[S@+]([O-])CC2)CC3 [Compound 51] : 70.1

inhibition at 0.1 µM reading for [O-][S@+]1CCc2nc(N3CCc4cc5c(cc4C3)OC(F)(F)O5)nc(NC3(CO)CCC3)c21 [Compound 48] : 76.2

inhibition at 0.1 µM reading for [O-][S@+]1CCc2nc(N3CCc4scc(Br)c4C3)nc(NC3(CO)CCC3)c21 [Compound 57] : 71.6
